Target: Diacylglycerol acyltransferase/mycolyltransferase Ag85C (Mycobacterium tuberculosis, UniProt P9WQN9)
Sequence (P9WQN9 whole entry): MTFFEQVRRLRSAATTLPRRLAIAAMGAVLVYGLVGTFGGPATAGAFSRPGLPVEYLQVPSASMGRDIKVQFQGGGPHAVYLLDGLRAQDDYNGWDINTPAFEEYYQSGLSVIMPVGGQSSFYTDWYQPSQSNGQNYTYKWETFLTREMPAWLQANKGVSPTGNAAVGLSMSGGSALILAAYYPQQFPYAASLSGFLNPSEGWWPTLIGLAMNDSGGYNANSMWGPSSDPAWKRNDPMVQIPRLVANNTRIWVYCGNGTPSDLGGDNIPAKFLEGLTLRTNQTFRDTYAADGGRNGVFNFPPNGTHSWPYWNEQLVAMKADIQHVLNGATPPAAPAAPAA
Assay: Inhibition of Mycobacterium tuberculosis recombinant antigen 85C mycolyltransferase
For each record, write down the corresponding IC50.

# batch: return IC50 for each of the 3 compounds below
1. CCOP(=O)(O)CCCCN1C(=O)c2ccccc2C1=O
2. CCCCCCP(=O)(OCC)OCc1ccccc1Oc1ccccc1 (stereo not drawn)
3. CCCCCCCP(=O)(OCC)OCc1ccccc1Oc1ccccc1 (stereo not drawn)

Result:
["110 µM", "42.6 µM", "21 µM"]

Record IC50 for all entries; do not skip any.
1. CCCCCCCCCCCCCCP(=O)(OCC)OCc1ccccc1Oc1ccccc1 (stereo not drawn)
2. CCCCCCP(=O)(OCC)OCc1cc(OC)c(OC)c(OC)c1 (stereo not drawn)
3. CCCCP(=O)(OCC)OCc1ccccc1Oc1ccccc1 (stereo not drawn)
4. CCCCCCCCCP(=O)(OCC)OCc1ccccc1Oc1ccccc1 (stereo not drawn)

Result:
1: 862 µM; 2: 102 µM; 3: 2 µM; 4: 14.8 µM

Request: Query (compound): CCOP(=O)(O)CCc1ccccc1 ; field requested: IC50
Result: 225 µM
